Assay: Genotoxicity in Salmonella typhimurium TA98 assessed as number of revertant by Ames spot test relative to solvent control
Assay type: toxicity
Details: salmonella enterica subsp. enterica serovar typhimurium
Reported endpoint: Ratio
// keep it numeric: no unit symbol after the value

Q) Give the value of Ratio reported for the following: CCCCCCCCCCCCCC(=O)OCC[N+](C)(C)Cc1cnc(C)c2c1COC(CCC)O2.[Cl-] (stereo not given)
A) 4.7

Q) Determine its reported Ratio: CCCCCCCCCCCC(=O)OCCC[N+](C)(C)Cc1cnc(C)c2c1COC(CCC)O2.[Cl-] (stereo not given)
A) 1.8

Q) State, in one line, measured Ratio of CCCCCCCCCCCCCC(=O)NCC[N+](C)(C)Cc1cnc(C)c2c1COC(C)(CCC)O2.[Cl-] (stereo not given)
A) 4.4

Q) Note Ratio for the molecule shown: CCCCCCCCCCCC(=O)NCC[N+](C)(C)Cc1cnc(C)c2c1COC(C)(CCC)O2.[Cl-] (stereo not given)
A) 1.9

Q) Quick one: give measured Ratio for CCCCCCCCCCCCCC(=O)OCC[N+](C)(C)Cc1nc(C)c2c(c1CO)COC(C)(C)O2.[Cl-]
A) 2.5

Q) Dear colleague, please send me the reported Ratio for CCCCCCCCCCCCCC(=O)NCC[N+](C)(C)Cc1nc(C)c2c(c1CO)COC(C)(C)O2.[Cl-] when you can.
A) 1.9

Q) Quick one: give measured Ratio for Nc1ccc([N+](=O)[O-])cc1N
A) 4.2

Q) Entry CCCCCCCCCCCCCC(=O)NCCC[N+](C)(C)Cc1cnc(C)c2c1COC(C)(C)O2.[Cl-] needs its Ratio filled in; supply it.
A) 2.6

Q) For the molecule CCCCCCCCCCCCCC(=O)NCC[N+](C)(C)Cc1cnc(C)c2c1COC(C)(C)O2.[Cl-] , report Ratio.
A) 1.7

Q) # return recorded Ratio for input CCCCCCCCCCCCCC(=O)OCC[N+](C)(C)Cc1cnc(C)c2c1COC(C)(C)O2.[Cl-]
A) 4.6

###

Assay: Genotoxicity in Salmonella typhimurium TA1535/pSK1002 assessed as DNA-damage activity by measuring beta-galactosidase activity at 15 ug/ml measured by SOS-chromotest relative to solvent control
Assay type: toxicity
Conditions: salmonella enterica subsp. enterica serovar typhimurium; dose 15 µg/ml
Reported endpoint: Ratio
Lab note: jot the number down without any unit.

Q) Respond only with Ratio recorded for CCCCCCCCCCCCCC(=O)OCC[N+](C)(C)Cc1nc(C)c2c(c1CO)COC(C)(C)O2.[Cl-]
A) 1.6

Q) Check the records and state Ratio for CCCCCCCCCCCCCC(=O)NCC[N+](C)(C)Cc1cnc(C)c2c1COC(C)(C)O2.[Cl-]
A) 1.5

Q) Recall and state the measured Ratio for CCCCCCCCCCCCCC(=O)NCC[N+](C)(C)Cc1cnc(C)c2c1COC(C)(CCC)O2.[Cl-] (centres undefined) .
A) 1.6

Q) Identify Ratio associated with the molecule CCCCCCCCCCCCCC(=O)NCCC[N+](C)(C)Cc1cnc(C)c2c1COC(C)(C)O2.[Cl-]
A) 1.5

Q) Identify Ratio associated with the molecule CCCCCCCCCCCCCC(=O)OCC[N+](C)(C)Cc1cnc(C)c2c1COC(CCC)O2.[Cl-] (centres undefined)
A) 1.5

Q) Give the reported value of Ratio for this record: CCCCCCCCCCCC(=O)OCCC[N+](C)(C)Cc1cnc(C)c2c1COC(CCC)O2.[Cl-] (centres undefined)
A) 1.4

Q) Query Ratio for CCCCCCCCCCCC(=O)NCC[N+](C)(C)Cc1cnc(C)c2c1COC(C)(CCC)O2.[Cl-] (centres undefined)
A) 1.6

Q) Let me know recorded Ratio for CCCCCCCCCCCCCC(=O)NCC[N+](C)(C)Cc1nc(C)c2c(c1CO)COC(C)(C)O2.[Cl-] , thanks.
A) 1.8

Q) Please list Ratio recorded for the molecule CCCCCCCCCCCCCC(=O)OCC[N+](C)(C)Cc1cnc(C)c2c1COC(C)(C)O2.[Cl-]
A) 1.6

###

Please respond with reported MIC for every item in the list.
Test system: Acinetobacter sp.
Assay: Antibacterial activity against clinical isolate Acinetobacter sp. 3 measured after 24 hrs by broth microdilution method
Type: functional
Express it in µg/mL; write the number only.

Q) Find the measured MIC of CCCCCCCCCCCCCC(=O)NCC[N+](C)(C)Cc1cnc(C)c2c1COC(C)(C)O2.[Cl-] and report it.
A) 64

Q) # return recorded MIC for entry CCCCCCCCCCCC(=O)OCCC[N+](C)(C)Cc1cnc(C)c2c1COC(CCC)O2.[Cl-] (stereo not given)
A) 64

Q) Specify measured MIC for CCCCCCCCCCCC(=O)NCC[N+](C)(C)Cc1cnc(C)c2c1COC(C)(CCC)O2.[Cl-] (stereo not given) .
A) 32

Q) Output measured MIC for this item: CCCCCCCCCCCCCC(=O)NCC[N+](C)(C)Cc1nc(C)c2c(c1CO)COC(C)(C)O2.[Cl-]
A) 32

Q) Consider the compound CCCCCCCCCCCCCC(=O)OCC[N+](C)(C)Cc1cnc(C)c2c1COC(CCC)O2.[Cl-] (stereo not given) and give its recorded MIC.
A) 64

Q) Annotate the compound CCCCCCCCCCCCCC(=O)OCC[N+](C)(C)Cc1nc(C)c2c(c1CO)COC(C)(C)O2.[Cl-] with its measured MIC.
A) 64

Q) Give the reported MIC for this compound. CCCCCCCCCCCCCC(=O)NCC[N+](C)(C)Cc1cnc(C)c2c1COC(C)(CCC)O2.[Cl-] (stereo not given)
A) 32

Q) Output MIC of CCCCCCCCCCCCCC(=O)OCC[N+](C)(C)Cc1cnc(C)c2c1COC(C)(C)O2.[Cl-]
A) 64

Q) Using the record for CCCCCCCCCCCCCCCCCC(=O)NCCC[N+](C)(C)Cc1cnc(C)c2c1COC(C)(C)O2.[Cl-] , state its measured MIC.
A) 64

###

Test system: Staphylococcus intermedius
Assay: Antibacterial activity against clinical isolate methicillin-resistant Staphylococcus intermedius 1061 measured after 24 hrs by broth microdilution method
Type: functional
Reported endpoint: MIC (µg/mL)
Use µg/mL as the unit, but write only the number.

Q) Quick one: give measured MIC for CCCCCCCCCCCCCC(=O)NCC[N+](C)(C)Cc1cnc(C)c2c1COC(C)(CCC)O2.[Cl-] (stereo not given)
A) 2

Q) Quote MIC reported for CCCCCCCCCCCCCC(=O)OCC[N+](C)(C)Cc1cnc(C)c2c1COC(CCC)O2.[Cl-] (stereo not given) please.
A) 2

Q) Give MIC for the following molecule: CCCCCCCCCCCCCC(=O)NCC[N+](C)(C)Cc1cnc(C)c2c1COC(C)(C)O2.[Cl-]
A) 4

Q) Check the records and state MIC for CCCCCCCCCCCCCC(=O)NCCC[N+](C)(C)Cc1ccccc1.[Cl-]
A) 64

Q) Specify reported MIC for the molecule shown: CCCCCCCCCCCCCCCCCC(=O)NCCC[N+](C)(C)Cc1cnc(C)c2c1COC(C)(C)O2.[Cl-]
A) 8

Q) Let me know recorded MIC for CCCCCCCCCCCC(=O)OCCC[N+](C)(C)Cc1cnc(C)c2c1COC(CCC)O2.[Cl-] (stereo not given) , thanks.
A) 16

Q) Identify MIC associated with the molecule CCCCCCCCCCCCCC(=O)NCC[N+](C)(C)Cc1nc(C)c2c(c1CO)COC(C)(C)O2.[Cl-]
A) 4

Q) Return the recorded MIC value; entry: CCCCCCCCCCCC(=O)NCC[N+](C)(C)Cc1cnc(C)c2c1COC(C)(CCC)O2.[Cl-] (stereo not given)
A) 4

Q) Supply MIC value. Item: CCCCCCCCCCCCCC(=O)OCC[N+](C)(C)Cc1nc(C)c2c(c1CO)COC(C)(C)O2.[Cl-]
A) 4

Q) Identify MIC associated with the molecule CCCCCCCCCCCCCC(=O)OCC[N+](C)(C)Cc1cnc(C)c2c1COC(C)(C)O2.[Cl-]
A) 8

###

Experiment: Lipophilicity, logP of the compound
Assay type: physicochemical
Settings: octanol/water
Outcome label depends on logP relative to 0.8: at/above gives 1, below gives 0.

Q) Could you verify whether the entry CCCCCC(=O)NCCC[N+](C)(C)Cc1cnc(C)c2c1COC(CCC)O2.[Cl-] (centres undefined) shows logP of no less than 0.8?
A) 0

Q) Could you tell me if the measured logP of CCCCCCCCCCCCCC(=O)OCC[N+](C)(C)Cc1nc(C)c2c(c1CO)COC(CCC)O2.[Cl-] (centres undefined) reaches 0.8 or more?
A) 1

Q) Can CCCCCCCCCCCCCC(=O)OCCC[N+](C)(C)Cc1cnc(C)c2c1COC(C)(C)O2.[Cl-] be said to have logP at or above 0.8?
A) 1

Q) I'd appreciate it if you could say whether CCCCCCCCCCCCCC(=O)NCCC[N+](C)(C)Cc1cnc(C)c2c1COC(CCCCCCCC)O2.[Cl-] (centres undefined) has logP at least equal to 0.8.
A) 1

Q) Hi, just wondering whether CCCCCCCCCCCCCC(=O)OCC[N+](C)(C)Cc1nc(C)c2c(c1CO)COC(C)(C)O2.[Cl-] shows logP of 0.8 or higher.
A) 1

Q) Hi, just wondering whether CCCCCCCCCCCCCCCC(=O)OCC[N+](C)(C)Cc1cnc(C)c2c1COC(C)(C)O2.[Cl-] shows logP of 0.8 or higher.
A) 1

Q) # bool: logP of CCCCCCCCCCCCCC(=O)NCC[N+](C)(C)Cc1nc(C)c2c(c1CO)COC(C)(C)O2.[Cl-] >= 0.8
A) 0

Q) Reported logP reaches at least 0.8 for CCCCCCCCCCCCCCCCCC[N+](C)(C)Cc1cnc(C)c2c1COC(C)(C)O2.[Cl-] ?
A) 1
